- Tested on: PC-3_[JPC-3] (Lung Adenocarcinoma)
- procedureDetails: combination Emax (second highest fraction inhibited in the dose matrix, 72 h); higher = more inhibition; extreme values may be limits of the assay
Threshold rule: combination Emax greater than or equal to 0.4 is condition met; below that, condition not met.

CCN(CCO)CCCOc1ccc2c(Nc3cc(CC(=O)Nc4cccc(F)c4)[nH]n3)ncnc2c1 [AZD2811] + C[C@@H]1COCCN1C2=NC(=NC(=C2)C3(CC3)[S@](=N)(=O)C)C4=C5C=CNC5=NC=C4 [AZD6738] (first compound max 1 µM, 7x7, partner max 10 µM) | condition not met
C=CCn1c(=O)c2cnc(Nc3ccc(N4CCN(C)CC4)cc3)nc2n1-c1cccc(C(C)(C)O)n1 [AZD1775] + CCc1c2c(nc3ccc(O)cc13)-c1cc3c(c(=O)n1C2)COC(=O)[C@]3(O)CC [SN-38] (first compound max 1 µM, partner max 0.3 µM) | condition met
CC1(C)CCC(CN2CCN(c3ccc(C(=O)NS(=O)(=O)c4ccc(NCC5CCOCC5)c([N+](=O)[O-])c4)c(Oc4cnc5[nH]ccc5c4)c3)CC2)=C(c2ccc(Cl)cc2)C1 [Venetoclax] + COc1cc(Nc2ncc3c(n2)-c2ccc(Cl)cc2C(c2c(F)cccc2OC)=NC3)ccc1C(=O)O [Alisertib] (first compound max 1 µM, 7x7, partner max 10 µM) | condition met
COc1nnc2ccc(N3CCC(c4ccc(OCCN5CCN(C)C(=O)[C@H]5C)cc4)CC3)nn12 [AZD5153] + CC1(C)CCC(CN2CCN(c3ccc(C(=O)NS(=O)(=O)c4ccc(NCC5CCOCC5)c([N+](=O)[O-])c4)c(Oc4cnc5[nH]ccc5c4)c3)CC2)=C(c2ccc(Cl)cc2)C1 [Venetoclax] (first compound max 1 µM, 7x7, partner max 1 µM) | condition not met
CN(C)CCCOc1ccc(-c2ccc3ncc4c(c3c2)n(C2CCOCC2)c(=O)n4C)cn1 [AZD0156] + O=C(c1cc(Cc2n[nH]c(=O)c3ccccc23)ccc1F)N1CCN(C(=O)C2CC2)CC1 [Olaparib] (first compound max 3 µM, partner max 3 µM) | condition not met
CCN(CCO)CCCOc1ccc2c(Nc3cc(CC(=O)Nc4cccc(F)c4)[nH]n3)ncnc2c1 [AZD2811] + O=C(c1cc(Cc2n[nH]c(=O)c3ccccc23)ccc1F)N1CCN(C(=O)C2CC2)CC1 [Olaparib] (first compound max 1 µM, 7x7, partner max 10 µM) | condition not met
Cc1c2c(nn1C)CSCc1cc(n(C)n1)CSc1cc(c3ccccc3c1)OCCCc1c(C(=O)O)n(C)c3c-2c(Cl)ccc13 [AZD5991] + Nc1ccn([C@@H]2O[C@H](CO)[C@@H](O)C2(F)F)c(=O)n1 [Gemcitabine] (first compound max 1 µM, 7x7, partner max 0.3 µM) | condition met
